target: Endonuclease III-like protein 1 (Homo sapiens) (UniProt P78549); test: Inhibition of NTH1 (unknown origin) assessed as remaining enzyme activity at 50 uM incubated for 40 mins by TAMRA fluorescence-based assay
Sequence (P78549 whole entry): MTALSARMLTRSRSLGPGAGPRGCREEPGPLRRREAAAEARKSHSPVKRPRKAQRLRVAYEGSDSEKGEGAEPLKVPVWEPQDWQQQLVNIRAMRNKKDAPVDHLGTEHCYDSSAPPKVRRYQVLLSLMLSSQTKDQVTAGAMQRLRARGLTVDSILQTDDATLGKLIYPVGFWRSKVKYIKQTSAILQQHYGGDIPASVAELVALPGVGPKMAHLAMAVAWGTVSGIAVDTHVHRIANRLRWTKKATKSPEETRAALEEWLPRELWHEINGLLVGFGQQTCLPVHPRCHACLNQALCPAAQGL
metricName: Activity (%)
The response must be a number in % with no trailing unit.

INSERT INTO measurements (compound, metricname, experimentalresult) VALUES
  ('COc1cc(C)c(S(=O)(=O)n2cc(C)nc2-c2ccccc2)cc1C', 'Activity', 109),
  ('NNC(=O)c1ccncc1', 'Activity', 98),
  ('CCCN1CCC(=NNC(=O)c2ccc(Cl)cc2Cl)CC1', 'Activity', 96.1),
  ('CC1CCCC/C1=N/NC(=O)c1sc2ccccc2c1Cl (stereo not drawn)', 'Activity', 94.8),
  ('O=C(CCNNC(=O)c1ccncc1)NCc1ccccc1', 'Activity', 108);

Problem: Please look up its Activity: O=C(N/N=C/c1ccc(F)cc1)c1sc2ccccc2c1Cl
Solution: 89.2

Problem: Recorded Activity of NNC(=O)COc1cccc2ccccc12 , please.
Solution: 53.6

Problem: Query: Activity; subject: NNC(=O)c1sc2cccc(Cl)c2c1Cl
Solution: 63.1

###

target: N-glycosylase/DNA lyase (Homo sapiens, UniProt O15527); assay: Inhibition of human OGG1 assessed as reduction in AP lyase activity using AP-containing substrate
Sequence (O15527 whole entry): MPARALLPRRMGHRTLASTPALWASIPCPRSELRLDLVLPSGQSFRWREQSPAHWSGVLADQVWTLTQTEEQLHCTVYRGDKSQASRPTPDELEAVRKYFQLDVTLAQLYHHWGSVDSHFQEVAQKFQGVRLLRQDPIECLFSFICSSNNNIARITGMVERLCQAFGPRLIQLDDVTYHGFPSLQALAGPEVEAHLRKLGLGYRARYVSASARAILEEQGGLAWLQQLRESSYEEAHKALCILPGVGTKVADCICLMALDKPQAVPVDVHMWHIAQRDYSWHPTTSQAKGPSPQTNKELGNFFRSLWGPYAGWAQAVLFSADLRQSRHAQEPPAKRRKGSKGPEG
Calls of active or inactive are those of the source. The rule behind the calls is not given here.
metricName: inhibition

INSERT INTO assay_data (givensmiles, experimentalresult) VALUES
  ('NNC(=O)c1sc2cccc(Cl)c2c1Cl', 'Active'),
  ('O=C(NN=C1CCCCC1)c1cc2ccccc2cc1O', 'Active'),
  ('Cc1cc(C(=O)NNCc2ccccc2)no1', 'inactive'),
  ('NNC(=O)c1ccncc1', 'inactive');

###

target: N-glycosylase/DNA lyase (Homo sapiens); assay: Inhibition of human OGG1 catalytic activity assessed as reduction trapping of substrates using AP site containing substrate by measuring concentration of compound needed to reduce borohydride trapping by 50% in presence of sodium cyno-borohydride by gel electrophoresis method
metricName: IC50
Provide the measurement as a number trailed by its unit.

Problem: Given NNC(=O)c1sc2cccc(Cl)c2c1Cl , state its recorded IC50.
Solution: 740 nM

###

test: Binding affinity to duplex DNA (unknown origin) assessed as induction of DNA intercalation at 50 uM incubated for 30 mins by gel electrophoresis
Active and inactive are the calls of the source. The calls are words filed in the database; no cut-off is given here.
Write down one outcome, taken from active, inactive

Solved cases (8 shown):
INSERT INTO assay_data (compound, assignedlabel) VALUES
  ('CCCN1CCC(=NNC(=O)c2ccc(Cl)cc2Cl)CC1', 'inactive'),
  ('CC1CCCC/C1=N/NC(=O)c1sc2ccccc2c1Cl (centres undefined)', 'inactive'),
  ('O=C(NN=C1CCCCC1)c1ccc(Br)cc1', 'inactive'),
  ('CCCC/C(C)=N\NC(=O)c1cccc(Br)c1', 'inactive'),
  ('Cc1cc(OCC(=O)NN)cc(C)c1Cl', 'inactive'),
  ('C/C(=N\NC(=O)c1cc2ccccc2cc1O)c1ccc2c(c1)OCO2', 'inactive'),
  ('NNC(=O)c1sc2cccc(Cl)c2c1Cl', 'inactive'),
  ('C=CCC/C(C)=N\NC(=O)c1cccc(Br)c1', 'inactive');

Problem: What did this assay record as the result for CC(Oc1cccc(Cl)c1)C(=O)NN (centres undefined) ?
Solution: inactive

Problem: For COc1cc(C)c(S(=O)(=O)n2cc(C)nc2-c2ccccc2)cc1C , what call appears in the results of this test?
Solution: inactive

Problem: # lookup: test call for O=C(NN=C1CCCCC1)c1cc2ccccc2cc1O
Solution: inactive

Problem: Check the results log: what was the call for CC[n+]1c(-c2ccccc2)c2cc(N)ccc2c2ccc(N)cc21 ?
Solution: active

Problem: Recorded call for NNC(=O)COc1cccc2ccccc12 ?
Solution: inactive

Problem: Test call for this compound, please: O=C(N/N=C/c1ccc(F)cc1)c1sc2ccccc2c1Cl
Solution: inactive
